Tested system: SARS-CoV-2 M^pro protease (Severe acute respiratory syndrome coronavirus 2 (2019-nCoV) (SARS-CoV-2), UniProt P0DTD1)
Test summary: biochemical
Type: biochemical
Settings: Tables 5B-5E; M^pro 75 nM, substrate 10 μM
Experimental readout: IC50 (nM)
Give bare numbers, in nM.

Consider the worked cases shown below.
>>> print(df.to_string())
                                   molecule  recorded_result
0  CC1(c2ccc(F)cc2Cl)CC2(C1)NC(=O)N(c1cncc3ccccc13)C2=O (single isomer, unassigned) [Compound 83]              241
1  O=C1NC2(CC(c3c(Cl)cccc3Cl)C2)C(=O)N1c1cncc2ccccc12 (single isomer, unassigned) [Compound 28]              291

Kindly give each listed record's IC50.
1. O=C1NC2(CC(c3ccccc3F)C2)C(=O)N1c1cncc2ccccc12 (stereo not shown) [Compound 18]
2. O=C1NC2(CC(c3ccccc3Cl)C2)C(=O)N1c1cccnn1 (stereo not shown)

1: 335; 2: 419

For each of the molecules below, note its IC50.
1. O=C1NC2(CC(c3ccccc3Br)C2)C(=O)N1c1cncc2ccccc12 (single isomer, unassigned) [Compound 17]
2. O=C1NC2(CC(c3ccc(F)cc3)C2)C(=O)N1c1cncc2ccccc12 (stereo not shown)

[79, 441]

Would you kindly share the measured IC50 for O=C1NC2(CC(c3sccc3Cl)C2)C(=O)N1c1cncc2ccccc12 (single isomer, unassigned) [Compound 43] ? 59

====

Tested system: SARS-CoV-2 M^pro protease (Severe acute respiratory syndrome coronavirus 2 (2019-nCoV) (SARS-CoV-2), UniProt P0DTD1)
Test summary: biochemical
Assay type: biochemical
Settings: Tables 5B-5E; M^pro 75 nM, substrate 10 μM
Experimental readout: pIC50
Numbers only, as −log10 of the molar value.

Reference set, count: 3
>>> df
                                   molecule  experimental_readout  recorded_result
0  O=C1NC2(CC(c3ccccc3Cl)C2)C(=O)N1c1cncc2cc(F)ccc12 (stereo not shown) [Compound 55]                 pIC50             6.73
1  O=C1NC2(CC(c3ccccc3Cl)C2)C(=O)N1c1cncc2cccnc12 (stereo not shown) [Compound 50]                 pIC50             6.98
2  O=C1NC2(CC(c3c(F)cccc3Cl)C2)C(=O)N1c1cncc2ccccc12 (single isomer, unassigned) [Compound 36]                 pIC50             6.69

For every item in the list below, what is its measured pIC50?
1. O=C1NC2(CC(c3ccsc3Cl)C2)C(=O)N1c1cncc2ccccc12 (single isomer, unassigned) [Compound 40]
2. O=C1NC2(CC(c3ccccc3Cl)C2)C(=O)N1c1cncc2[nH]c(=O)[nH]c12 (stereo not shown) [Compound 98]
3. O=C1NC2(CC(c3cccc(Cl)c3)C2)C(=O)N1c1cncc2ccccc12 (stereo not shown) [Compound 25]

[6.52, 5.86, 6.03]

# batch: return pIC50 for each of the 4 molecules below
1. O=C1NC2(CC(c3ccccc3Cl)C2)C(=O)N1c1cncc2nccn12 (stereo not shown) [Compound 99]
2. Cc1ccnc(F)c1N1C(=O)NC2(CC(c3ccccc3Cl)C2)C1=O (stereo not shown) [Compound 90]
3. O=C1NC2(CC(c3ccccc3F)C2)C(=O)N1c1cncc2ccccc12 (stereo not shown) [Compound 19]
4. O=C(CN1C(=O)N(c2cncc3ccccc23)C(=O)C12CC(C1CCC1)C2)c1ccccn1 (stereo not shown) [Compound 73]

1. 6.11
2. 6.65
3. 6.49
4. 5.84

// for each molecule below, give its pIC50
1. O=C1NC2(CC(c3cc(F)c(F)cc3Cl)C2)C(=O)N1c1cncc2ccccc12 (stereo not shown) [Compound 87]
2. O=C1NC2(CC(c3ccccc3Cl)C2)C(=O)N1c1cccnc1 (stereo not shown) [Compound 100]
3. O=C1NC2(CC(c3cn(Cc4ccccc4)nn3)C2)C(=O)N1c1cncc2ccccc12 (stereo not shown) [Compound 47]

6.94
6.53
4.97
